Below, each of the binders is paired with its reported EC50 value.
- target-or-test-system: T1, his-tagged human CDH6 extracellular region protein (hCDH6 ECD-his) (human, UniProt P55285 19-615)
- T1 construct: also called Human CDH6-his; hCDH6-his; not shown: his tag
- T1 sequence: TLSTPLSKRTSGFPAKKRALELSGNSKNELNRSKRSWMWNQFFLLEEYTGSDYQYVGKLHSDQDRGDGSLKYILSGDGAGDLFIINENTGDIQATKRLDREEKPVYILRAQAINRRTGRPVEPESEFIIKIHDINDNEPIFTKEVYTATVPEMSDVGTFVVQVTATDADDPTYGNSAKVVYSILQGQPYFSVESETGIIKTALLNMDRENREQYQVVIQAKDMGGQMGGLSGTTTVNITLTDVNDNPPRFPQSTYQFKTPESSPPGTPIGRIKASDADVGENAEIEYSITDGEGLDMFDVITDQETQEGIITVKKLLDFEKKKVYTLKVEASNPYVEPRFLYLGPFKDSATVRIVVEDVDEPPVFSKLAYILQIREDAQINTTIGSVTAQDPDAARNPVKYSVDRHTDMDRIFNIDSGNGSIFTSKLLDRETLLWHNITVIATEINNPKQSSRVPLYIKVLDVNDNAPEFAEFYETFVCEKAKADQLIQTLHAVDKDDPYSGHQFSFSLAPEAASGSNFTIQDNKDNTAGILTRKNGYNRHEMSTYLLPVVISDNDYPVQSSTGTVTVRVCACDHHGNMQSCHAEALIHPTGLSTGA
- protocol-notes: ELISA, coated antigen
- Experimental: Human CDH6 protein (hCDH6 ECD-his, conventionally synthesized), monkey CDH6 protein (cynoCDH6 ECD-his, conventionally synthesized; the cynoCDH6 ECD sequence was derived from Uniprot #A0A2K5TW62 (19-615)), and murine CDH6 protein (mCDH6 ECD-his, conventionally synthesized; the mCDH6 ECD sequence was derived from Uniprot #P97326 (19-615)) were diluted with PBS to a final concentration of 1 μg/mL, and added to a 96-well ELISA plate at 100 μL/well. The plate was incubated at 4° C. overnight. […]

Worked examples, 2 binders total:
hCDH6-14-H3L1 (antibody, V domains shown, Humanized) VH: EIQLVQSGAEVKKPGASVKVSCKASGYTFTDNYINWVRQAPGQRLEWMGWIYPGTGNSYYNEKFKGRVTLTVDTSASTAYMELSSLRSEDTAVYYCASSYGDSFDYWGQGTTVTVSS VL: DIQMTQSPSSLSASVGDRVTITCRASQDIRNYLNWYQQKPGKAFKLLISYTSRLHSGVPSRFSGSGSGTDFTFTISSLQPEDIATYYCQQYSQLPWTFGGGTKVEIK | 96 pM
hCDH6-1-H1L3 (antibody, V domains shown, Humanized) VH: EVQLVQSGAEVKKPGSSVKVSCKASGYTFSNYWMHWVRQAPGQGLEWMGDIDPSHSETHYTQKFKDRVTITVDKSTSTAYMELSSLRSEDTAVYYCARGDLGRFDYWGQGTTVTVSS VL: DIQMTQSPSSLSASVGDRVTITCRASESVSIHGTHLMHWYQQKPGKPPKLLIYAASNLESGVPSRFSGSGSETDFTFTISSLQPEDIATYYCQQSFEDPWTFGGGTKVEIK | 29 pM

Value of EC50 reported for the binder hCDH6-14-H3L3 (antibody, V domains shown, Humanized) VH: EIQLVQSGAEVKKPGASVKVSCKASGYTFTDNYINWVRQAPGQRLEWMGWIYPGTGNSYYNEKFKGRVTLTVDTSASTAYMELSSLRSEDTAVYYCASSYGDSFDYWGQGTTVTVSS VL: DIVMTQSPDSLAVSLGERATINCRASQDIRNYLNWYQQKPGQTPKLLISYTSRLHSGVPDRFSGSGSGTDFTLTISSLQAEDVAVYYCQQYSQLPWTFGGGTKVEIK is 113 pM
